# TARGET_ENTITY: human β3 -adrenergic receptor (Homo sapiens, UniProt P13945)
# Construct: expressed in transfected cells; host or cells: CHO-K1 (ATCC CCL 61), clone CHO/pKREX10-36
# Sequence (P13945 whole entry): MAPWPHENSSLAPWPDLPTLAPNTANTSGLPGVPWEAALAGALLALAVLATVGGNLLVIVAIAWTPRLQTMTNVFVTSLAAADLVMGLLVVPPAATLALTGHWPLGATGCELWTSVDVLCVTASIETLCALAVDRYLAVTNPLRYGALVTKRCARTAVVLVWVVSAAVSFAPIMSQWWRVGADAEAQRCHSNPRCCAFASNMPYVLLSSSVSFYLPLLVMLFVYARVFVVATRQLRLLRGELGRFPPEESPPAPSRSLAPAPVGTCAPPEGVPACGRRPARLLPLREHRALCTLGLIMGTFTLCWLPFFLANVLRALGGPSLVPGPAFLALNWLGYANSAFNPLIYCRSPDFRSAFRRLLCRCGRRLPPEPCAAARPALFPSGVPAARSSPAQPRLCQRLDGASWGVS
# ASSAY_INFO: Human β3-adrenergic receptor-stimulating activity (cAMP accumulation in CHO/pKREX10-36 cells)
# Format: cell-based
MEASUREMENT_LABEL: EC50 (nM)
The reply should contain only the number, in nM.

Suppose we examine the compound COC(=O)c1ccc2c(CC(C)NCC(O)c3cccc(Cl)c3)c[nH]c2c1 (stereo not drawn) ; what EC50 value has been reported?
31

Would you mind doing COC(=O)COc1cccc2c(CC(C)NC[C@H](O)c3cccc(Cl)c3)c[nH]c12 (stereo partly drawn) as well?
0.43

Let us now turn to Cc1cccc2c(CC(C)NCC(O)c3cccc(Cl)c3)c[nH]c12 (stereo not drawn)
35

Please give the result for COC(=O)COc1ccc2c(CC(C)NCC(O)c3cccc(Cl)c3)c[nH]c2c1 (stereo not drawn) too.
25

Then this compound: COc1cccc2c(CC(C)NC[C@H](O)c3cccc(Cl)c3)c[nH]c12 (single isomer, unassigned)
0.36

One more compound: CC(Cc1c[nH]c2cc(OCC(=O)O)ccc12)NCC(O)c1cccc(Cl)c1 (stereo not drawn)
31

Consider next the compound COc1ccc2c(CC(C)NCC(O)c3cccc(Cl)c3)c[nH]c2c1OC (stereo not drawn) in the same way.
4

Would you kindly repeat that for CCOc1cccc2c(CC(C)NCC(O)c3cccc(Cl)c3)c[nH]c12 (stereo not drawn) ?
2

One more compound: CC(Cc1c[nH]c2c(OCc3ccccc3)cccc12)NCC(O)c1cccc(Cl)c1 (stereo not drawn)
16

----------
# TARGET_ENTITY: human β2 -adrenergic receptor (Homo sapiens)
# Construct: expressed in transfected cells; host or cells: CHO-K1, clone CHO/pKREX21-8
# ASSAY_INFO: Human β2-adrenergic receptor-stimulating activity (cAMP accumulation in CHO/pKREX21-8 cells)
# Assay type: cell-based
Would you kindly list EC50 for each of these compounds?
Give the value, in units of nM, as a plain number.

Fill blank: measured EC50 of the compound COc1cccc2c(CC(C)NCC(O)c3cccc(Cl)c3)c[nH]c12 (stereo not shown) is ____.
25

Quick one: CC(Cc1c[nH]c2c(OCc3ccccc3)cccc12)NCC(O)c1cccc(Cl)c1 (stereo not shown)
43

// query: CCOc1cccc2c(CC(C)NCC(O)c3cccc(Cl)c3)c[nH]c12 (stereo not shown)
55

And then COC(=O)COc1ccc2c(CC(C)NCC(O)c3cccc(Cl)c3)c[nH]c2c1 (stereo not shown) , what is it?
33

----------
# TARGET_ENTITY: human β2 -adrenergic receptor (Homo sapiens, UniProt P07550)
# Construct: expressed in transfected cells; host or cells: CHO-K1, clone CHO/pKREX21-8
# Sequence (P07550 whole entry): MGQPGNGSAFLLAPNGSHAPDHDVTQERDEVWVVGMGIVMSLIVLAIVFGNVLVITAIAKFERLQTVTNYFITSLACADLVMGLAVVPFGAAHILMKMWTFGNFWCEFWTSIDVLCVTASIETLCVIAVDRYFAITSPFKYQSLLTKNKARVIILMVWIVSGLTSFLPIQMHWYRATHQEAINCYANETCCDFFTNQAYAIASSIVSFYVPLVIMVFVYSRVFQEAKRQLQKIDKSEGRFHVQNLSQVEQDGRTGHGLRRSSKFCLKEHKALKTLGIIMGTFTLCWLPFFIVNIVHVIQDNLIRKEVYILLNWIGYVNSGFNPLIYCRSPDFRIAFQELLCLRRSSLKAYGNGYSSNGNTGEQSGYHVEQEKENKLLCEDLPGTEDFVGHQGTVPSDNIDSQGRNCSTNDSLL
# ASSAY_INFO: Human β2-adrenergic receptor-stimulating activity (cAMP accumulation in CHO/pKREX21-8 cells)
# Format: cell-based
# CONDITION_SET: intrinsic activity: maximal cAMP response relative to 10^-5 M (-)-isoproterenol = 100%
MEASUREMENT_LABEL: I.A. value β2 -receptor
Answer with the number, then the unit.

Which I.A. value β2 -receptor value is on record for OC(CNCCc1c[nH]c2ccccc12)c1ccccc1 (stereo not shown) [Compound B, reference compound] ?
8%

Also need CC(Cc1c[nH]c2cc(OCC(=O)O)ccc12)NCC(O)c1cccc(Cl)c1 (stereo not shown) , thanks.
6%

// next record COC(=O)c1ccc2c(CC(C)NCC(O)c3cccc(Cl)c3)c[nH]c2c1 (stereo not shown)
5%

Same again, this time with O=[N+]([O-])c1cccc(C(O)CNCCc2c[nH]c3ccccc23)c1 (stereo not shown) [Compound C, reference compound]
5%

----------
# Test system: glucose level in the blood
# ASSAY_INFO: Blood glucose reducing activity on fasted mouse
# Format: in vivo, ddY male mouse
# CONDITION_SET: po, 3 h, read-out: Blood glucose reducing activity (ED25)
The label is YES for ED25 below 1 mg/kg and NO for ED25 equal to or exceeding 1 mg/kg.

State whether 1 mg/kg exceeds ED25 recorded for Cc1cccc2c(CC(C)NCC(O)c3cccc(Cl)c3)c[nH]c12 (centres unmarked) .
NO

Check COC(=O)c1ccc2c(CC(C)NCC(O)c3cccc(Cl)c3)c[nH]c2c1 (centres unmarked) too.
NO

Thanks! And COc1ccc2c(CC(C)NCC(O)c3cccc(Cl)c3)c[nH]c2c1 (centres unmarked) ?
NO

Another compound to check: Cc1ccc2c(CC(C)NCC(O)c3cccc(Cl)c3)c[nH]c2c1 (centres unmarked)
NO

Input COC(=O)COc1ccc2c(CC(C)NCC(O)c3cccc(Cl)c3)c[nH]c2c1 (centres unmarked)
NO

Next entry: COc1cccc2c(CC(C)NC[C@H](O)c3cccc(Cl)c3)c[nH]c12 (some centres unmarked)
YES

Repeat with CCOc1cccc2c(CC(C)NCC(O)c3cccc(Cl)c3)c[nH]c12 (centres unmarked)
YES

Please answer likewise for COc1cccc2c(CC(C)NCC(O)c3cccc(Cl)c3)c[nH]c12 (centres unmarked)
YES

----------
# TARGET_ENTITY: human β2 -adrenergic receptor (Homo sapiens, UniProt P07550)
# Construct: expressed in transfected cells; host or cells: CHO-K1, clone CHO/pKREX21-8
# ASSAY_INFO: Human β2-adrenergic receptor-stimulating activity (cAMP accumulation in CHO/pKREX21-8 cells)
# Assay type: cell-based
MEASUREMENT_LABEL: EC50
// unit must come after the numeric part

Query the reported EC50 for human β2 -adrenergic receptor (Homo sapiens, UniProt P07550); item: COc1ccc2c(CC(C)NCC(O)c3cccc(Cl)c3)c[nH]c2c1 (centres unmarked) [Example 3]
170 nM

Follow-up entry: COc1cccc2c(CC(C)NC[C@H](O)c3cccc(Cl)c3)c[nH]c12 (some centres unmarked) [Example 1-A]
13 nM

Quick one: COc1ccc2c(CC(C)NCC(O)c3cccc(Cl)c3)c[nH]c2c1OC (centres unmarked) [Example 12]
31 nM

And what about the compound COC(=O)COc1cccc2c(CC(C)NC[C@H](O)c3cccc(Cl)c3)c[nH]c12 (some centres unmarked) [Example 14] ?
6 nM

Input Cc1ccc2c(CC(C)NCC(O)c3cccc(Cl)c3)c[nH]c2c1 (centres unmarked) [Example 5]
33 nM

Now this one: CCOc1cccc2c(CC(C)NC[C@H](O)c3cccc(Cl)c3)c[nH]c12 (some centres unmarked) [Example 2-A]
15 nM

And for COc1cccc2c(CC(C)NC[C@H](O)c3cccc(Cl)c3)c[nH]c12 (single isomer, unassigned) [Example 1-A-b] ?
3.6 nM

Can you handle Cc1cccc2c(CC(C)NCC(O)c3cccc(Cl)c3)c[nH]c12 (centres unmarked) [Example 6] next?
88 nM

----------
Please provide measured log10 EC50 for the entries that follow.
# TARGET_ENTITY: human β3 -adrenergic receptor (Homo sapiens)
# Construct: expressed in transfected cells; host or cells: CHO-K1 (ATCC CCL 61), clone CHO/pKREX10-36
# ASSAY_INFO: Human β3-adrenergic receptor-stimulating activity (cAMP accumulation in CHO/pKREX10-36 cells)
# Format: cell-based
# CONDITION_SET: 50% of cAMP accumulation; CHO/pKREX10-36, 37° C., 30 minutes; read-out: EC50 value β3 -receptor
Values reflect log10 of reported EC50 (nM).

Any idea what log10 EC50 was measured for OC(CNCCc1c[nH]c2ccccc12)c1ccccc1 (centres unmarked) [Compound B, reference compound] ?
2.26

Queued: Cc1ccc2c(CC(C)NCC(O)c3cccc(Cl)c3)c[nH]c2c1 (centres unmarked)
1.08

Next up: COc1cccc2c(CC(C)NC[C@H](O)c3cccc(Cl)c3)c[nH]c12 (some centres unmarked)
-0.17

Entry to check: COc1cccc2c(CC(C)NCC(O)c3cccc(Cl)c3)c[nH]c12 (centres unmarked)
0.23

// same read-out, input: CCOc1cccc2c(CC(C)NC[C@H](O)c3cccc(Cl)c3)c[nH]c12 (some centres unmarked)
-0.02

COc1ccc2c(CC(C)NCC(O)c3cccc(Cl)c3)c[nH]c2c1 (centres unmarked) ?
1.34

Now consider OC(CNCCc1c[nH]c2ccc(Cl)cc12)c1ccccc1 (centres unmarked) [Compound A, reference compound] and answer again.
2.96

One more compound: O=[N+]([O-])c1cccc(C(O)CNCCc2c[nH]c3ccccc23)c1 (centres unmarked) [Compound C, reference compound]
2.73

----------
# TARGET_ENTITY: human β3 -adrenergic receptor (Homo sapiens, UniProt P13945)
# Construct: expressed in transfected cells; host or cells: CHO-K1 (ATCC CCL 61), clone CHO/pKREX10-36
# ASSAY_INFO: Human β3-adrenergic receptor-stimulating activity (cAMP accumulation in CHO/pKREX10-36 cells)
# Assay type: cell-based
# CONDITION_SET: read-out: I.A. value β3 -receptor
Assignment: determine reported Emax for the given compounds.
Note to self: number, then unit, no commentary.

Given CCOc1cccc2c(CC(C)NC[C@H](O)c3cccc(Cl)c3)c[nH]c12 (some centres unmarked) , state its recorded Emax.
96%

How about CC(Cc1c[nH]c2cc(OCC(=O)O)ccc12)NCC(O)c1cccc(Cl)c1 (centres unmarked) ?
101%

Follow-up item: COC(=O)COc1cccc2c(CC(C)NC[C@H](O)c3cccc(Cl)c3)c[nH]c12 (some centres unmarked)
95%

COc1ccc2c(CC(C)NCC(O)c3cccc(Cl)c3)c[nH]c2c1OC (centres unmarked) ?
98%

Same read-out for OC(CNCCc1c[nH]c2ccccc12)c1ccccc1 (centres unmarked) [Compound B, reference compound] ?
100%

Continue with COc1cccc2c(CC(C)NC[C@H](O)c3cccc(Cl)c3)c[nH]c12 (single isomer, unassigned) [Example 1-A-b]
89%

Another: COC(=O)COc1ccc2c(CC(C)NCC(O)c3cccc(Cl)c3)c[nH]c2c1 (centres unmarked)
76%

Try CCOc1cccc2c(CC(C)NCC(O)c3cccc(Cl)c3)c[nH]c12 (centres unmarked) next.
117%

Where do the numbers come from? From patent US5817689A.
